Tested on: MDA-MB-231
Test: Cytotoxicity against human MDA-MB-231 cells after 72 hrs by MTT assay
Type: functional, cell-based
Conditions: MDA-MB-231, 72 h
pIC50: −log10 of the molar value.
Endpoint Name: pIC50

1) COc1cc2c(Oc3ccc(NC(=O)N/N=C/c4ccc(F)cc4F)cc3F)ccnc2cc1OCCCN1CCCCC1    6.07
2) COc1cc2c(Oc3ccc(NC(=O)N/N=C/c4ccc([N+](=O)[O-])cc4)cc3F)ccnc2cc1OCCCN1CCCCC1    5.85
3) COc1cc2c(Oc3ccc(NC(=O)N/N=C/c4ccc(F)cc4)cc3F)ccnc2cc1OCCCN1CCCCC1    6.09
4) COc1cc2c(Oc3ccc(NC(=O)N/N=C/c4cccc([N+](=O)[O-])c4)cc3F)ccnc2cc1OCCCN1CCCCC1    6.00
